target: FKTN; test: pooled miR-30 sensor sort-seq; sequence = guide strand; details: shRNA; also: reference of the scale not given here
Measured sensor-assay potency score (higher = more potent), listed per entry.
readout.label: sensor-assay potency score (higher = more potent)

• TTGCATTGTCGATACCATCCTA = -0.0659
• TTGTTTAATGTTTTCGCTGCTA = 0.0989
• TGCATTGTGAAGTAGAGCCATG = -1.03
• TAGACAAGTTCCACTGCTCAGC = -0.942
• ATTTTGACAAACCAGCTCCATT = -1.46
• TTAACTGCACGCCACTGTGTGC = -1.27
• TATCAGATTTGTAATCTTGTAT = 0.319
• TTTCCTGTCAATGTGTTCTTTA = -0.407
• TACTTCTTCTACAAAGTGCATT = -0.78
• TAGTACAACTGAAACAGCAGAA = 0.161
• TAAATAGTGCTTGTAGTAGTAC = -0.0376
• TGCATTGTCGATACCATCCTAG = -0.739
• TTTGACTTGTTCAAAGTTCTTA = 0.733
• TCCATCAACAGTAACTTGCTGT = -0.268
• TTTAAGTCTCAAGTGGCCGTGC = 0.148

----------
target: DNAJC8; assay: pooled miR-30 sensor sort-seq; sequence = guide strand; conditions: shRNA
readout.label: sensor-assay potency score (higher = more potent)

- TTTCTTGAGCTTCAATCTCTTC: -0.98
- TTTCTAACCATCACAATTCAGT: -0.77
- TTGTCTGTTTATATACAGCTTG: -0.738
- TTGAGCTTCAATCTCTTCTTCC: 0.0915
- TTTCACAGTGTGTTCCACGTAT: 0.15
- TTGTCGTTTCCTTTCATGCATC: -1.33

----------
target: NTHL1; experiment: pooled miR-30 sensor sort-seq; sequence = guide strand; conditions: shRNA
readout.label: sensor-assay potency score (higher = more potent)

• TCATCTGTCTGCAGGATGCTGT = -0.751
• TTTTTGTTCCTCATGGCACGGA = 0.281
• TTGGTTGCCTTCTTGGTCCACC = -0.633
• TTCTGTGCACATGCGTGTCCAC = -0.487
• TTGACCAGCTGTTGCTGCCAGT = -1.05
• TAGATGAGCTTGCCCAGCGTGG = -1.11
• ATCAGTGACAGCAGCACCTGGT = -0.43

----------
Measured sensor-assay potency score (higher = more potent), listed per entry.
biological target: C19orf33; assay: pooled miR-30 sensor sort-seq; sequence = guide strand; conditions: shRNA
readout.label: sensor-assay potency score (higher = more potent)

• TCTCCTTCTTCTTCACTTTGGG = -0.407
• ACATCCGTGTCCGAATCGCTGG = -1.43
• TGAGCTTGGGATCTCCCCCGTG = -0.899
• TTCTCCTTCTTCTTCACTTTGG = -0.173
• TCTCGTGCTGCTTGGAGCCAGC = -1.2
• TCCGTGTCCGAATCGCTGGAGC = -1.74
• AAGAGCTGTGGTGTCCTTGCTT = 0.114

----------
Measured sensor-assay potency score (higher = more potent), listed per entry.
target: CBWD3; experiment: pooled miR-30 sensor sort-seq; sequence = guide strand; settings: shRNA
readout.label: sensor-assay potency score (higher = more potent)

* TTTATGGATCTAATTGTCGTTC | -0.438
* TTTATTATCCAATCCTTTTGAT | -0.0523
* TTATCCAATCCTTTTGATAAGA | -1.37
* TATTATCCAATCCTTTTGATAA | -1.72
* TTATTATCCAATCCTTTTGATA | -1.04

Every entry's value here was drawn from the OligoGym collection.
